Value source: patent US9089499B2

# Test system: fungal tyrosinase
# Assay name: In vitro test of inhibition of isolated fungal tyrosinase (L-dopa, dopachrome OD 490 nm)
# Format: biochemical
# Condition description: 10^−4M; 490 nm
Measured quantity: Inhibition of fungal tyrosinase, percentage of inhibition, Mean 10^−4M (%)

Molecule | Readout units | Val
COc1cc(/C=C/C(=O)NCc2ccc(O)c(OC)c2)ccc1O | % | 1.35
COc1cc(/C=C/C(=O)NCCc2ccc(OC)c(OC)c2)ccc1O [Example 2, N-trans-feruloyl-3,4-dimethoxydopamine] | % | 0
COc1cc(/C=C/C(=O)NCCc2ccc(O)cc2)ccc1O [Example 3, N-trans-feruloyltyramine] | % | 29.41
O=C(/C=C/c1ccc(O)c(O)c1)NCCc1ccc(O)cc1 [Example 9, N-trans-caffeoyltyramine] | % | 27.42
COc1cc(/C=C/C(=O)NCCc2ccc(O)c(O)c2)ccc1O [Example 1, N-trans-feruloyldopamine] | % | 9.18
O=C(/C=C/c1ccc(O)c(O)c1)NCCc1ccc(O)c(O)c1 [Example 10, N-trans-caffeoyldopamine] | % | 16.23

a. COc1ccc(CCNC(=O)/C=C/c2ccc(O)c(O)c2)cc1OC [Example 12, N-trans-caffeoyl-3,4-dimethoxydopamine]
b. COc1cc(CNC(=O)/C=C/c2ccc(O)c(O)c2)ccc1O
query: Lowest Inhibition of fungal tyrosinase, percentage of inhibition, Mean 10^−4M? choose a or b Respond using the label that marks the chosen record.
result: b
(b: 12.03%, a: 17.32%)

---

# Target under test: Human tyrosinase (Homo sapiens)
# Construct: endogenous in cells; host or cells: normal human melanocytes (abdominal surgery; several donors of fair, brown and black phototypes)
# Assay name: Inhibition of human tyrosinase after 24 h application to normal human melanocytes in monolayer
# Assay type: cell-based
# Condition description: 10^−5M; 24 hours; read-out: Inhibition of human tyrosinase after application to normal human melanocytes, percentage of inhibition, Mean 10^−5M
# Experimental: Normal human melanocytes (obtained from abdominal surgery) are seeded in 24-well plates at a rate of 80 000 cells per well. They are cultured to confluence and the active agents are applied for 24 hours to the culture media. After 24 hours, the media are removed and the melanocytes are detached via mechanical action. An extraction is performed via a thermal shock and the supernatants are then recovered and incubated with MBTH (Sigma) and L-dopa (Sigma). […]
Measured quantity: inhibition at 10 µM (%)

Compound | Readout units | inhibition at 10 µM
COc1cc(/C=C/C(=O)NCCc2ccc(O)c(O)c2)ccc1O [Example 1, N-trans-feruloyldopamine] | % | 29.4
O=C(CCc1ccc(O)c(O)c1)NCCc1ccc(O)cc1 [Example 13, dihydrocaffeoyltyramine] | % | 12.9

I. COc1cc(/C=C/C(=O)NCc2ccc(O)c(OC)c2)ccc1O
II. COc1cc(C=CC(=O)O)ccc1O [Ferulic acid, 4-hydroxy-3-methoxycinnamic acid, reference compound]
III. COc1cc(/C=C/C(=O)NCCc2ccc(O)cc2)ccc1O [Example 3, N-trans-feruloyltyramine]
IV. O=C(/C=C/c1ccc(O)c(O)c1)NCCc1ccc(O)c(O)c1 [Example 10, N-trans-caffeoyldopamine]
query: # ascending order, key=inhibition at 10 µM Please respond with the labels ordered as the question requires.
result: IV, II, I, III

---

# Target under test: Human tyrosinase (Homo sapiens)
# Construct: endogenous in cells; host or cells: normal human melanocytes (abdominal surgery; several donors of fair, brown and black phototypes)
# Sequence (P14679 19-529): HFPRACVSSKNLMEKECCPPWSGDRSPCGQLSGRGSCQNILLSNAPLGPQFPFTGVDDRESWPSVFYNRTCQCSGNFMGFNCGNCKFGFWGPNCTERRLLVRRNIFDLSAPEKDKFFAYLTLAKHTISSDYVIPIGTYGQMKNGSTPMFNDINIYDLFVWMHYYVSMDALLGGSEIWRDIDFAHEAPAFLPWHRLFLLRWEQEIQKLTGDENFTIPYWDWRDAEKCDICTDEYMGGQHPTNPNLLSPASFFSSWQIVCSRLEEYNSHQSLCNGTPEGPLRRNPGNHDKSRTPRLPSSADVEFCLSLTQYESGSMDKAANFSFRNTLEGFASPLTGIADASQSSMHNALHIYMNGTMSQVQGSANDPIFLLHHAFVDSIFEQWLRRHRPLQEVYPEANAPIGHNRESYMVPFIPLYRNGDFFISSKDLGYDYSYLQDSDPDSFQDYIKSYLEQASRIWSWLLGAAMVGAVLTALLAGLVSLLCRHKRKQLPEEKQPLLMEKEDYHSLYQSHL
# Assay name: Inhibition of human tyrosinase after 24 h application to normal human melanocytes in monolayer
# Format: cell-based
# Condition description: comment on Table 4; normal human melanocytes

Compound | Target under test | anti-tyrosinase activity, in words
Cl.NCCc1ccc(O)cc1 [Tyramine, reference compound] | Human tyrosinase (Homo sapiens) | very low activity
O=C(O)C=Cc1ccc(O)c(O)c1 [Caffeic acid, 3,4-dihydroxycinnamic acid, reference compound] | Human tyrosinase (Homo sapiens) | very low activity
Cl.NCCc1ccc(O)c(O)c1 [Dopamine, 3-hydroxytyramine, reference compound] | Human tyrosinase (Homo sapiens) | very low activity
